The following compounds are listed with their measured IC50 values.
- experimentalTarget: Ribonucleotide reductase (Homo sapiens, UniProt P23921+Q7LG56)
- Sequence (P23921 whole entry, looked up): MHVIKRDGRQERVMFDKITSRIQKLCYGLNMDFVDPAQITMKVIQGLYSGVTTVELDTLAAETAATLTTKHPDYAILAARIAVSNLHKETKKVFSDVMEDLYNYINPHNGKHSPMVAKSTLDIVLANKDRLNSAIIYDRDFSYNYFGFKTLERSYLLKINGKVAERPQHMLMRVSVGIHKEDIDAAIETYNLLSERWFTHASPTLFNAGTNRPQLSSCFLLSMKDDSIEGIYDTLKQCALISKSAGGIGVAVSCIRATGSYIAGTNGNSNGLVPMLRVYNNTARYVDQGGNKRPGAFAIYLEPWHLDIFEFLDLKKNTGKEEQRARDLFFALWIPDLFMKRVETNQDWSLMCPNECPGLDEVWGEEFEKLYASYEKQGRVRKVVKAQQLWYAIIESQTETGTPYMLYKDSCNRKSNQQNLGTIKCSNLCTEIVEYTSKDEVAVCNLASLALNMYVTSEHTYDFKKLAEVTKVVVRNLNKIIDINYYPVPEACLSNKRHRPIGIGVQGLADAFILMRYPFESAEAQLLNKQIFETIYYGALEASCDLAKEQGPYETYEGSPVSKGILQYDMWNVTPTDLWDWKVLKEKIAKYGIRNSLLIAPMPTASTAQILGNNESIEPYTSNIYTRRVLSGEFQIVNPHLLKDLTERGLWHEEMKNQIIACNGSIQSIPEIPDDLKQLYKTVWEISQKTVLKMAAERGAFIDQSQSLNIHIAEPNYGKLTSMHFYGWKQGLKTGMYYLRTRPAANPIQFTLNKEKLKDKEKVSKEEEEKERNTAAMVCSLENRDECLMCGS
- Sequence (Q7LG56 whole entry, looked up): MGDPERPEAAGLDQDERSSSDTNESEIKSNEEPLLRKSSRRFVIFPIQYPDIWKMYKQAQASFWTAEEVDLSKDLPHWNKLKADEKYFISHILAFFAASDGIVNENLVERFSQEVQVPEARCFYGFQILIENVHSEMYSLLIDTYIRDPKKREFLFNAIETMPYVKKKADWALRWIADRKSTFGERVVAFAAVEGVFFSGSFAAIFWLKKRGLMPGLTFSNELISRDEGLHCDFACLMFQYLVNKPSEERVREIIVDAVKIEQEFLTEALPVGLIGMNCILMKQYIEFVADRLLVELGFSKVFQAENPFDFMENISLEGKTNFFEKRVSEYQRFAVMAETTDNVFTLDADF
- assayInfo: Human RNR Inhibition Effect: The inhibitory activity against the ribonucleotide reduction reaction (hereinafter referred to as RNR reaction) of the test compound was determined by measuring the formation of deoxycytidine diphosphate (hereinafter referred to as dCDP) from cytidine diphosphate (hereinafter referred to as CDP) by the following method.Human M1 subunit and human M2 subunit (mutant …
Give just the number in nM; leave the unit off.

Previously resolved entries follow.
INSERT INTO measurements (cpdsmiles, experimentaltarget, property, valuereported) VALUES
  ('Cc1ccc(F)c([C@@H](C)[C@H](NS(=O)(=O)c2ccc(Cl)cc2C(N)=O)c2n[nH]c(=O)o2)c1', 'Ribonucleotide reductase (Homo sapiens, UniProt P23921+Q7LG56)', 'IC50', 240),
  ('CCc1ccc(F)c([C@@H](C)[C@H](NS(=O)(=O)c2ccc(Cl)cc2C(N)=O)c2n[nH]c(=O)o2)c1C', 'Ribonucleotide reductase (Homo sapiens, UniProt P23921+Q7LG56)', 'IC50', 180);

In one line, give reported IC50 of the entry Cc1cccc([C@@H](C)[C@H](NS(=O)(=O)c2ccc(Cl)cc2C(N)=O)c2n[nH]c(=O)o2)c1C . 300

In one line, give reported IC50 of the entry Cc1ccc(F)c([C@@H](C)[C@H](NS(=O)(=O)c2ccc(F)c3c2OCCC3=O)c2n[nH]c(=O)o2)c1C . 160
